Target: Casein kinase II subunit alpha (Homo sapiens, UniProt P68400)
Sequence (P68400 whole entry): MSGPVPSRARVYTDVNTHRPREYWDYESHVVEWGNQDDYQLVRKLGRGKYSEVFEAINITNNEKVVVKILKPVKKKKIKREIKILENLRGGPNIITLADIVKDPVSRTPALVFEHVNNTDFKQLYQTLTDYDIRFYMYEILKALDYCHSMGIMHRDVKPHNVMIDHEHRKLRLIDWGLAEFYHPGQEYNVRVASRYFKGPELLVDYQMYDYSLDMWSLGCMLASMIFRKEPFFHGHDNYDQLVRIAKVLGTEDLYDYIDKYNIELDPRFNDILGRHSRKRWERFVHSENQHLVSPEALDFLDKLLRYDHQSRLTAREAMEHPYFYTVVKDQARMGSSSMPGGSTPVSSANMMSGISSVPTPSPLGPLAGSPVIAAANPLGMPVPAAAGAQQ
Experiment: CK2α Inhibition Assay
pKi: −log10 of the molar value.
metric_name: pKi

[N-]=[N+]=NCCn1cnc2c(Br)c(Br)c(Br)c(Br)c21; 5.63
Cc1c(Br)c(Br)c(Br)c2nc[nH]c12; 5.65
O=C(O)CCc1cn(CCCn2cnc3c(Br)c(Br)c(Br)c(Br)c32)nn1; 5.63
O=C(O)CCc1cn(CCCn2nc3c(Br)c(Br)c(Br)c(Br)c3n2)nn1; 5.50
O=C(O)CCc1cn(CCn2cnc3c(Br)c(Br)c(Br)c(Br)c32)nn1; 5.27
[N-]=[N+]=NCCCn1cnc2c(Br)c(Br)c(Br)c(Br)c21; 5.48
O=C(O)c1cn(CCn2cnc3c(Br)c(Br)c(Br)c(Br)c32)nn1; 5.71
O=C(O)c1cn(CCCn2nc3c(Br)c(Br)c(Br)c(Br)c3n2)nn1; 5.61
O=C(O)c1cn(CCCn2cnc3c(Br)c(Br)c(Br)c(Br)c32)nn1; 6.04
